Tested on: RARa:RXR (NR concentration 270 nM, RXRa partner concentration 90 nM)
EXPERIMENT: PBM binding z-score (relative to random genomic background probes); higher = stronger binding; sequences stand for … in GC…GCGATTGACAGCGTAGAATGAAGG
In this scheme, each record receives a class according to its PBM binding z-score; the ranges are band 1: < 0.8; band 2: ≥ 0.8 and < 3; band 3: ≥ 3

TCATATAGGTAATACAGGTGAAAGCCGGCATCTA    band 2

input: Which band does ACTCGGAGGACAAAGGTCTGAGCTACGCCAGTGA fall in?
output: band 1

input: Query CGTCAAAGTTCAAGGTGACGTAACAGAAAGCAGC next
output: band 3

input: Query CGAACGAGGCCATGAGTTGATAGCAAATGCCGAT next
output: band 1

input: Query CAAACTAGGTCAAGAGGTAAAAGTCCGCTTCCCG next
output: band 3

input: Query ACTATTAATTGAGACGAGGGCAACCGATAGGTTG next
output: band 2

###

Test system: PPARg DBDmut IVT, anti-PPARg (DBD mutation: PPARg1 K132A/R137A, NR concentration 270 nM)
EXPERIMENT: PBM binding z-score (relative to random genomic background probes); higher = stronger binding; sequences stand for … in GC…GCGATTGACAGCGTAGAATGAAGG
# PBM binding z-score values compiled below
Enter the number alone.

// below: answered sequences
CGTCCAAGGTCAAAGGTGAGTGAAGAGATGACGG    -0.248
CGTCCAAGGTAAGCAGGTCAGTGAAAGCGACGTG    -0.894
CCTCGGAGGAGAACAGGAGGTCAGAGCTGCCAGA    -1.78
ATCTCTAGGTAACCAAGCTCAGTGAATGCCGAAC    0.885
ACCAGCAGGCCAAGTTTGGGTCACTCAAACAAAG    -1.36
TTACCAAGGTGAGCTGAGGTCCTTGATCCAACTC    -1.12

Okay, now this sequence:
input: Name the reported PBM binding z-score value associated with the sequence GATACAGCGTCAAGGCCAGAGTACGCGTATTGAT
output: -0.941

###

Tested on: THRa homodimer (NR concentration 90 nM)
EXPERIMENT: PBM binding z-score (relative to random genomic background probes); higher = stronger binding; sequences stand for … in GC…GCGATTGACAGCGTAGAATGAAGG
# PBM binding z-score values compiled below
Enter the number alone.

// below: answered sequences
ATCGAAAGGTCGAGGGTGAGTATACCCACCCGAA    -0.00779
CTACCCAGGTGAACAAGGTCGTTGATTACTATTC    1.87
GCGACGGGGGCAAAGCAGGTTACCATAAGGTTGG    1.23

input: // fetch THRa homodimer (NR concentration 90 nM) PBM binding z-score for GCTATTAGTTGAAAGGGCAACCAAATGATTCTCG
output: -0.397

input: Query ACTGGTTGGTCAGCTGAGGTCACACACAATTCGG next
output: 5.73

input: Query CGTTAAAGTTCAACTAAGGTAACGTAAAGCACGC next
output: 1.68

input: Query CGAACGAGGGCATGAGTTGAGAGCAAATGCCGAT next
output: -0.339

input: Query TCTATTAGTTGATTAGGGCAAGCGAAACAGCGGA next
output: 0.23
